Origin of measurements: ChEMBL document CHEMBL1201862

Molecular target: Replicative DNA helicase DnaB (Mycobacterium tuberculosis)
Sequence (P9WMR3 whole entry): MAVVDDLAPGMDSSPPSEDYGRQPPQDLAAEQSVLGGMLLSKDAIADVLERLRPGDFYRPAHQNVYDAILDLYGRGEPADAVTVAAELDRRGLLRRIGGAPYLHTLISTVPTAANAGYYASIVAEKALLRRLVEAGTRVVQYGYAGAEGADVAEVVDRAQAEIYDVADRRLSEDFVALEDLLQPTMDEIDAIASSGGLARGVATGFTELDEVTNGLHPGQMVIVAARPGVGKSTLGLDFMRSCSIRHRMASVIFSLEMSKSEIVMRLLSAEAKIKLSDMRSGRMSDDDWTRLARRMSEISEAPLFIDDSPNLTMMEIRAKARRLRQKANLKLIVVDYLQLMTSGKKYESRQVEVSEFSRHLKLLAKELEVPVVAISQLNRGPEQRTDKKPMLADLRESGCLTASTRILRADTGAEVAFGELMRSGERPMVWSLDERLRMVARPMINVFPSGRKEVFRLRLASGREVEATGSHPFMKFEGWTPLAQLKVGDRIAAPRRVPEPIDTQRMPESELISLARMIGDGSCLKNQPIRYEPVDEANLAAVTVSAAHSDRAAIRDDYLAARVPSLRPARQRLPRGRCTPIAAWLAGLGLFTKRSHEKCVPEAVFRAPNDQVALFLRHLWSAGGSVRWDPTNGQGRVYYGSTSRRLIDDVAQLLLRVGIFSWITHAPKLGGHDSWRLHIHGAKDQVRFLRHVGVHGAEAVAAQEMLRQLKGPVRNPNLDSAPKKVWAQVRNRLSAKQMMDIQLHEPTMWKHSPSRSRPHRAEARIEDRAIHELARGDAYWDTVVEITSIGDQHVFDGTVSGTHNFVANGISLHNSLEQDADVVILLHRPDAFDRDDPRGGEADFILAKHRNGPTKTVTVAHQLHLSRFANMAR
Assay: DnaB intein splicing inhibitors, dose response, biochemical, cell-free fluorescence (AID 449749)
Assay type: functional
Calls of active or inactive are those of the source.

# compound, AC50
records = [
    ("CCOc1ccccc1Oc1coc2cc(OC(=O)c3ccco3)ccc2c1=O", "> 380 µM (inactive)"),
    ("O=[N+]([O-])c1cc(S(=O)(=O)C(F)(F)F)ccc1Sc1nc2ccccc2[nH]1", "2.83 µM (active)"),
    ("O=C(Sc1nnc(-c2ccccc2)o1)N1c2ccccc2Sc2ccccc21", "1.25 µM (active)"),
    ("CCN1C(=O)c2c(C)nc3ccccc3c2C1=O", "43.4 µM (active)"),
    ("C#CCOC(=O)c1ccccc1C(=O)n1nnc2ccccc21", "6.81 µM (active)"),
    ("CC1=NN(c2ccc(S(=O)(=O)O)cc2C)C(=O)C1", "3.99 µM (active)"),
    ("O=C(CCCN1C(=O)/C(=C/c2cccs2)SC1=S)Nc1ccc(O)cc1", "2.11 µM (active)"),
    ("CCN1Cc2c(/C=C/c3ccccc3)nc3ccc(OC)cc3c2N(c2cccc(Cl)c2)C1", "> 380 µM (inactive)"),
    ("CC1=NN(Cc2ccccc2)C(=O)C1C(c1ccncc1)C(C#N)C#N (stereo unspecified)", "9.46 µM (active)"),
    ("O=Cc1ccc(Sc2nnc(-c3ccccc3)o2)c([N+](=O)[O-])c1", "9.51 µM (active)"),
    ("NC1=C(Br)C(=O)c2ccccc2C1=O", "2.95 µM (active)"),
]

----------
Measured IC50 by item
Biological target: Leucine aminopeptidase (Plasmodium falciparum 3D7)
Sequence (Q8IL11 whole entry): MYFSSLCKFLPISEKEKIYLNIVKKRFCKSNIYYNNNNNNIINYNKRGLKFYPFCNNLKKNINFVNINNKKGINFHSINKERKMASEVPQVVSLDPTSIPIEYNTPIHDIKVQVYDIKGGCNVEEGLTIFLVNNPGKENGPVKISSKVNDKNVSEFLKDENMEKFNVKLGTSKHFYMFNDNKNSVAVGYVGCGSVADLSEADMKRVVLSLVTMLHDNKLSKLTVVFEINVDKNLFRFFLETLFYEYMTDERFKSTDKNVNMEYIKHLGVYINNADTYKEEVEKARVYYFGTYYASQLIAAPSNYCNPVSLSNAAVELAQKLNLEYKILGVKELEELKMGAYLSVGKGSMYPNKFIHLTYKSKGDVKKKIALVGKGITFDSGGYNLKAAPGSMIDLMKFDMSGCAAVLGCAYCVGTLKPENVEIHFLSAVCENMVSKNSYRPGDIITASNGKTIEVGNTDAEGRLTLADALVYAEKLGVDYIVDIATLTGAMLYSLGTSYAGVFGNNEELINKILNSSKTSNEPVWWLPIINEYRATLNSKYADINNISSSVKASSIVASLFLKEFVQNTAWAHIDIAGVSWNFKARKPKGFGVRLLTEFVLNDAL
Assay: P. falciparum M17LAP inhibitors, primary screen, biochemical, fluorogenic H-Leu-NHMec substrate, 1536-well (AID 1619)
Format: functional
Active and inactive are the calls of the source.

# compound, IC50
data = [
    ("O=C(Cc1cc(O)n[nH]1)N/N=C/c1c(Cl)cccc1Cl", "49.9 µM (active)"),
    ("COc1ccc(CNC(=O)C2CC(C)=C(C)CC2C(=O)O)cc1 (stereo not given)", "43.7 µM (active)"),
    ("O=C1CC(=O)C(n2cncn2)C(c2ccc(Cl)cc2Cl)C1 (stereo not given)", "17.9 µM (active)"),
    ("Cc1ccc(-n2c(C)cc(C(=O)NS(=O)(=O)c3ccc(C)cc3)c2C)cc1", "25.4 µM (active)"),
    ("C/C(=N/NC(=O)Cc1c(C)n[nH]c1O)c1ccc(O)cc1", "4.09 µM (active)"),
]

----------
Activity calls are given as the source filed them.
Target or system Estrogen receptor (Homo sapiens); recorded quantity IC50.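 Note: potency for inhibiting coactivator peptide recruitment to the receptor.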
observed-property: IC50

# molecular-string, tested-target, test-value
measured = [
    ("CCOC(=O)Cc1cc(O)n2nc(-c3ccc(C)cc3)cc2n1", "Estrogen receptor (Homo sapiens)", "13.9 µM (active)"),
    ("Cc1ccc(-c2nnn(CC(=O)Nc3ccc4nn(-c5ccccc5)nc4c3)n2)o1", "Estrogen receptor (Homo sapiens)", "> 50 µM (not active)"),
    ("CCC(=O)Nc1nonc1-c1nc2ccccc2n1N(C(=O)CC)C(=O)CC", "Estrogen receptor (Homo sapiens)", "> 50 µM (not active)"),
    ("Brc1ccc(-c2nnc(-c3cccnc3)c3conc23)cc1", "Estrogen receptor (Homo sapiens)", "6.62 µM (active)"),
    ("O=C(NCc1ccco1)c1nn2c(C(F)(F)F)cc(-c3cccs3)nc2c1Br", "Estrogen receptor (Homo sapiens)", "36.9 µM (not active)"),
    ("COc1cc(NC(=O)c2cccs2)c(C(=O)OCC(=O)NCc2ccco2)cc1OC", "Estrogen receptor (Homo sapiens)", "14.8 µM (active)"),
    ("CSc1nc(NCc2ccco2)c2ccccc2n1", "Estrogen receptor (Homo sapiens)", "> 50 µM (not active)"),
    ("O=S(=O)(c1cccc(-c2cn3cccnc3n2)c1)N1CCCCCC1", "Estrogen receptor (Homo sapiens)", "22.3 µM (active)"),
    ("N#C/C(=C(\\O)Nc1ccc(Cl)cc1)c1nc2ccccc2[nH]1", "Estrogen receptor (Homo sapiens)", "27.1 µM (active)"),
    ("O=C(CSc1nnc(SCC(=O)c2ccco2)s1)c1ccco1", "Estrogen receptor (Homo sapiens)", "21.2 µM (active)"),
]

----------
assay: Luminescence Cell-Based Dose Response HTS to Identify Activators of Luciferase Translation or Activity in H4 […] Cells. [Related pubchem assays: 1829 (Project Summary), 1814 (Primary HTS)]; type: functional
Calls of active or inactive are those of the source.

# molecular-string, EC50
data = [
    ("COc1cc(/C=C/C(=O)c2ccc3c(c2)OCCO3)cc(Br)c1OCC(=O)N(C)C", "14.4 µM (active)"),
    ("O=C1Nc2ccccc2S/C1=C\\C(=O)N1CCCC1", "8.16 µM (active)"),
    ("CC(C)(C)C(=O)N1CCN(c2nc3ccc(Cl)cc3s2)CC1", "0.244 µM (active)"),
    ("COc1ccc2nc(O)c(CN(c3ccccc3OC)S(=O)(=O)c3ccccc3)cc2c1", "14.3 µM (active)"),
    ("CC(C)(C)c1ccc(OC(=O)N2CCCCC2)cc1", "< 0.1 µM (active)"),
    ("O=Nc1c(-c2ccccc2)cc2ccccn12", "12.1 µM (active)"),
]

----------
biological target: UniProt:P08659; assay: inhibition of purified Photinus pyralis luciferase – biochemical, luminescence, dose response (AID 1891)
Sequence (P08659 whole entry): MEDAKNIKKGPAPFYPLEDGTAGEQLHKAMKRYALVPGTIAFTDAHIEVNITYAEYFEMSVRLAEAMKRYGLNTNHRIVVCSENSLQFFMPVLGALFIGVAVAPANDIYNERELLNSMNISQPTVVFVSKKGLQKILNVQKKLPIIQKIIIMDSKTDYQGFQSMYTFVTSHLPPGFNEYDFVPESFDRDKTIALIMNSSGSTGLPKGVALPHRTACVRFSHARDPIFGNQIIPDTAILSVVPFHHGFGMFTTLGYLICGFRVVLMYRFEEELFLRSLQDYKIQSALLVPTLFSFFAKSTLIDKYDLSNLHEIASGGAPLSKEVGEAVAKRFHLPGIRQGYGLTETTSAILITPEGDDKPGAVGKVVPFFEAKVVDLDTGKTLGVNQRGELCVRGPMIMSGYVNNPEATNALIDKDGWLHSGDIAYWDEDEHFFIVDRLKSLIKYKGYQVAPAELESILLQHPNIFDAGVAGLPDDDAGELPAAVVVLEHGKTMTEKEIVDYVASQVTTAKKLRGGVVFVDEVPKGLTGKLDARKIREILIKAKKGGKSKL
Active and inactive are the calls of the source.
Measured EC50 by item

# molecular-string, EC50
rows = [
    ("O=C(/C=C/Nc1ccc(F)cc1Br)c1ccccc1", "0.283 µM (active)"),
    ("CN1/C(=C\\C(=O)COC(=O)c2ccc([N+](=O)[O-])o2)C(C)(C)c2ccccc21", "> 112 µM (not active)"),
    ("Cc1[nH]c2nc(SCC(=O)c3ccccc3)nc-2cc1Br", "> 112 µM (not active)"),
    ("O=C(NCc1ccco1)c1nn2c(C(F)(F)F)cc(-c3cccs3)nc2c1Br", "> 112 µM (not active)"),
    ("CC(=O)Oc1ccc(/C=C/c2nc3ccccc3c(=O)o2)cc1", "0.359 µM (active)"),
    ("Cc1ccc(C)c(-c2nnc(NC(=O)CS(=O)(=O)c3ccccc3)o2)c1", "> 112 µM (not active)"),
]
